Where do these numbers come from? They come from ChEMBL document CHEMBL4261491.

- Measurement Description: Cytotoxicity against HUVEC assessed as cell viability at 16 ug/ml after 24 hrs by MTT assay relative to control
- Assay type: cell-based
- Study Conditions: human, HUVEC cells; read-out: Activity
Could you please report measured viability at 24 h, 16 ug/ml for the items listed next?
Could you give the number and then its unit, please?

## Input May I ask what viability at 24 h, 16 ug/ml has been recorded for `O=C1/C(=C/c2ccco2)CC/C1=C\c1ccco1` ?
## Output 86%

## Input May I ask what viability at 24 h, 16 ug/ml has been recorded for `COc1cc(/C=C/C(=O)CC(=O)/C=C/c2ccc(O)c(OC)c2)ccc1O` ?
## Output 80%

## Input May I ask what viability at 24 h, 16 ug/ml has been recorded for `O=C(/C=C/c1ccc(O)c(O)c1)/C=C/c1ccc(O)c(O)c1` ?
## Output 91%

## Input May I ask what viability at 24 h, 16 ug/ml has been recorded for `O=C1/C(=C/c2ccc(CO)o2)CC/C1=C\c1ccc(CO)o1` ?
## Output 68%

## Input May I ask what viability at 24 h, 16 ug/ml has been recorded for `O=C(/C=C/c1ccc2c(c1)OCO2)/C=C/c1ccc2c(c1)OCO2` ?
## Output 88%

## Input May I ask what viability at 24 h, 16 ug/ml has been recorded for `O=C(/C=C/c1cccs1)/C=C/c1cccs1` ?
## Output 84%

## Input May I ask what viability at 24 h, 16 ug/ml has been recorded for `O=C1/C(=C/c2ccc(O)cc2)CC/C1=C\c1ccc(O)cc1` ?
## Output 69%

## Input May I ask what viability at 24 h, 16 ug/ml has been recorded for `O=C(/C=C/c1ccc(F)cc1)/C=C/c1ccc(F)cc1` ?
## Output 64%

## Input May I ask what viability at 24 h, 16 ug/ml has been recorded for `O=C(/C=C/c1ccc(O)cc1)/C=C/c1ccc(O)cc1` ?
## Output 87%

## Input May I ask what viability at 24 h, 16 ug/ml has been recorded for `COc1ccc(/C=C/C(=O)/C=C/c2ccc(OC)c(OC)c2)cc1OC` ?
## Output 67%
